Target chain: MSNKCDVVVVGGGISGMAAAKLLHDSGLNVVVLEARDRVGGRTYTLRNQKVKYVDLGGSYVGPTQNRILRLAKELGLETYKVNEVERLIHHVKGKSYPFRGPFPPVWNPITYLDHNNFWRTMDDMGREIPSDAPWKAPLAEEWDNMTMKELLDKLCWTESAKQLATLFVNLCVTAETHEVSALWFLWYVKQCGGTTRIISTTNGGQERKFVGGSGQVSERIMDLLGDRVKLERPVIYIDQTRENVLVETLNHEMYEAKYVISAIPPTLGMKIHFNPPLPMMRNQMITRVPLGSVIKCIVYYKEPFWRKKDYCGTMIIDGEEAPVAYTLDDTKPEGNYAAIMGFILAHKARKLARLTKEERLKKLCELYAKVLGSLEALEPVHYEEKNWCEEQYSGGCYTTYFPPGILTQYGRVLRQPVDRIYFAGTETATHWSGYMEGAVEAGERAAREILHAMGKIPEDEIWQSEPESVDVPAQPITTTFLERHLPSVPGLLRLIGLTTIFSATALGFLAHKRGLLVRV
the protein given by its sequence IC50, compiled from various sources.

C#CCn1c(=O)c2c(nc3n2CCCN3C2CCN(Cc3ccccc3)CC2)n(C)c1=O tested on the protein given by its sequence gave IC50: > 10 µM

COc1ncccc1CN[C@@H]1[C@H]2Cc3ccccc3[C@H]21 (racemic) tested on the protein given by its sequence gave IC50: > 100 µM

CC(C)C[C@H](NC(=O)[C@H](CCCNN)NC(=O)[C@H](CO)NC(=O)[C@H](CCCNC(=N)N)NC(=O)[C@@H]1CCCN1)C(=O)N[C@H](C(=O)N[C@@H](CCCNC(=N)N)C(=O)N[C@@H](CCCCN)C(=O)N1CCC[C@H]1C(=O)N[C@@H](CO)C(=O)N[C@@H](CC(=O)O)C(=O)N1CCC[C@H]1C(=O)N[C@@H](CC(N)=O)C(=O)N[C@@H](CCCNC(=N)N)C(=O)N[C@@H](CCCCN)C(=O)N1CCC[C@H]1C(=O)N[C@@H](CC(N)=O)C(=O)N[C@@H](Cc1ccc(O)cc1)C(=O)N[C@@H](CO)C(=O)N[C@@H](CCC(N)=O)C(N)=O)C(C)C tested on the protein given by its sequence gave IC50: > 30 µM

CCC(C)(C)c1ccc(OCCCCCCCCN2CCCC(C)C2)cc1 (centres undefined) tested on the protein given by its sequence gave IC50: > 1 µM

----------
Amine oxidase [flavin-containing] B (Homo sapiens) pIC50, compiled from various sources.
- target or system: Amine oxidase [flavin-containing] B (Homo sapiens)
- Sequence (P27338 whole entry): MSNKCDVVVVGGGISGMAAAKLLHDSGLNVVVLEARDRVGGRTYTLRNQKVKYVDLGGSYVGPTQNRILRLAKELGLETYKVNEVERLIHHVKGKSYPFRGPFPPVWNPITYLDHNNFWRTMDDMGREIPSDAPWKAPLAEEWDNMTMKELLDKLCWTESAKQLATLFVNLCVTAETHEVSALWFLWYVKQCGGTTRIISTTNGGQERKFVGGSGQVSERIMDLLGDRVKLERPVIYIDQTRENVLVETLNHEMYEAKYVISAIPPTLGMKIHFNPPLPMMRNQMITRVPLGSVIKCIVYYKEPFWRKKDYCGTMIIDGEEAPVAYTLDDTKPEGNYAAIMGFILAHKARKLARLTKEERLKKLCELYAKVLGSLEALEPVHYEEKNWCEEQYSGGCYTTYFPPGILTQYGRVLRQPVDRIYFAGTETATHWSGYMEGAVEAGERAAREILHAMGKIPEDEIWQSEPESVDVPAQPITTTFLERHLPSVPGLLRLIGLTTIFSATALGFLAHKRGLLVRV
pIC50: −log10 of the molar value.

Reported pIC50 for Nc1n[nH]c(NCc2c(Cl)cccc2Oc2ccc3ccccc3c2)n1 was < 3.70

Reported pIC50 for Brc1ccc(-c2csc(N/N=C/c3ccc(N4CCOCC4)cc3)n2)cc1 was < 4.00

Reported pIC50 for CCC(C)(C)c1ccc(OCCCCCCN2CCCC(C)C2)cc1 (centres undefined) was < 6.00

Reported pIC50 for Cn1c(=O)c2c(cc(/C=C/c3ccccc3O)n2C)n(C)c1=O was < 6.00

----------
the protein given by its sequence pIC50, compiled from various sources.
Target sequence: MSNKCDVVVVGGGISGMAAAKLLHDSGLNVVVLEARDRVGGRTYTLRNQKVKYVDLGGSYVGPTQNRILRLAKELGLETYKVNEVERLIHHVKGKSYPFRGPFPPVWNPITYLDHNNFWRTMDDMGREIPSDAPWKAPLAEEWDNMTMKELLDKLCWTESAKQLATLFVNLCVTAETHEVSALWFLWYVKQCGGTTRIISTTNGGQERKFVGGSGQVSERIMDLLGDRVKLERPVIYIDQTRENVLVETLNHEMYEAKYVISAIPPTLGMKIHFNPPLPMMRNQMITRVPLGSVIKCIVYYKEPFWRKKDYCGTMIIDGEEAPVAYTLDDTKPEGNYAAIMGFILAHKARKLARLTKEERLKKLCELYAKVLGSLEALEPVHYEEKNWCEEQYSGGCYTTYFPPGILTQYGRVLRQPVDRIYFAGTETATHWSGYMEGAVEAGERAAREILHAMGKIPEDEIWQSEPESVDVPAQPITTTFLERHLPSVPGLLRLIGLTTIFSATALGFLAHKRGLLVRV
Scale explanation: pIC50 corresponds to minus log10 of a concentration expressed in moles per litre.

COc1ccc(NC(=O)c2coc3ccccc3c2=O)cc1OC tested on the protein given by its sequence gave pIC50: 5.63

Oc1cc(OCc2ccc(F)c(Cl)c2)ccc1CNc1ccccc1 tested on the protein given by its sequence gave pIC50: 7.48

O=c1[nH]c2ccc(OCc3ccccc3)cc2c(=O)o1 tested on the protein given by its sequence gave pIC50: 7.14

COc1ccc(/C=N/Nc2nc(-c3ccc(F)cc3)cs2)cc1 tested on the protein given by its sequence gave pIC50: 5.03

Oc1cc(OCc2cccc(Cl)c2)ccc1CNc1ccccc1 tested on the protein given by its sequence gave pIC50: 6.60

O=c1[nH]c2ccc(OCc3cccc(Br)c3)cc2c(=O)o1 tested on the protein given by its sequence gave pIC50: 7.96

O=C(/C=C/c1ccc2c(c1)OCO2)NC1CCCCC1 tested on the protein given by its sequence gave pIC50: 6.18

Cc1ccc(NC(=O)c2cc(=O)c3cc(O)ccc3o2)cc1 tested on the protein given by its sequence gave pIC50: 7.26

N#Cc1ccc(-c2csc(N/N=C/c3ccc(N4CCCC4)cc3)n2)cc1 tested on the protein given by its sequence gave pIC50: 4.28

C#CCN(C)Cc1ccnc2c(O)cccc12 tested on the protein given by its sequence gave pIC50: 7.24

Clc1ccc(-c2csc(N/N=C/c3ccc(N4CCCC4)cc3)n2)c(Cl)c1 tested on the protein given by its sequence gave pIC50: 3.88

----------
- target or system: Amine oxidase [flavin-containing] B (Homo sapiens)
- Sequence (P27338 whole entry): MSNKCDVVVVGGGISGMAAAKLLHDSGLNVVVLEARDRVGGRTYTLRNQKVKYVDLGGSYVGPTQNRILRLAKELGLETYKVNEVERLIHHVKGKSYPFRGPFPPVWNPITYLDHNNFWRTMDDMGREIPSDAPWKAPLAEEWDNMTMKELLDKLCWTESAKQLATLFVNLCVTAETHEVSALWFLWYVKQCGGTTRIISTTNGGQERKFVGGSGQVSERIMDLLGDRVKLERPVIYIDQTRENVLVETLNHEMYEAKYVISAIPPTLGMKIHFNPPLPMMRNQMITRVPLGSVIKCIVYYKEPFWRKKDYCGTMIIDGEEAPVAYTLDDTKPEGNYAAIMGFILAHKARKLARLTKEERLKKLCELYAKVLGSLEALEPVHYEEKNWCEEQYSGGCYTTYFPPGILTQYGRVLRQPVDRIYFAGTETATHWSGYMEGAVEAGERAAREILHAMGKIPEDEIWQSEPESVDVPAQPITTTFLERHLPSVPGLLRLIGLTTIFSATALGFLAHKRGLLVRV
pIC50: −log10 of the molar value.
Amine oxidase [flavin-containing] B (Homo sapiens) pIC50, compiled from various sources.

Reported pIC50 for CCC(C)(C)c1ccc(OCCCCCN2CCC(C)CC2)cc1 was < 6.00

Reported pIC50 for COc1ccc(/C=C/C(=O)c2ccc(OC)cc2)cc1 was < 5.00

Reported pIC50 for N/C(=N\O)c1cccc(/C=C/c2ccnc(-c3ccccc3O)c2)c1 was < 4.30

----------
Amine oxidase [flavin-containing] B (Homo sapiens) pIC50, compiled from various sources.
- target or system: Amine oxidase [flavin-containing] B (Homo sapiens)
- Sequence (P27338 whole entry): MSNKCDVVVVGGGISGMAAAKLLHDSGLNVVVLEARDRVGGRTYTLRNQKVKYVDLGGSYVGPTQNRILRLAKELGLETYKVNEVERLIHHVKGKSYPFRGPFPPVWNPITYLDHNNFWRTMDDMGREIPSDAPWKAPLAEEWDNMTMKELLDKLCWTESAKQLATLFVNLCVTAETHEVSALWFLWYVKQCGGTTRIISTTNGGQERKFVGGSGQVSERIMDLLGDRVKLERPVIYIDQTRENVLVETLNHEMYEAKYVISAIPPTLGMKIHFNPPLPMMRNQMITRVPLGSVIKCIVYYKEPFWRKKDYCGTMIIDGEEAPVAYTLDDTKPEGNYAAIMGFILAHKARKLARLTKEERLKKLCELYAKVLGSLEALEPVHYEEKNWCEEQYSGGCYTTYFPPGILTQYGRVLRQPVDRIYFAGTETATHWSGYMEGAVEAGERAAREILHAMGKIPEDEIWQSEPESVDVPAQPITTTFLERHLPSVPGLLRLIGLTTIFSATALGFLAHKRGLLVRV
pIC50: −log10 of the molar value.

Reported pIC50 for CCn1c(/C=C/c2ccc(Cl)cc2)cc2c1c(=O)n(C)c(=O)n2C was < 6.00

Reported pIC50 for O=C(NO)c1ccc(CNC2CC2c2ccccc2)cc1 (centres undefined) was < 4.00

Reported pIC50 for C#CCn1c(=O)c2c(nc3n2CCCN3c2cccc(OC)c2)n(C)c1=O was < 5.00

Reported pIC50 for CN1CCN(C(=O)CNC2CC2c2cccc(OCC[C@H](NC(=O)c3ccccc3)C(=O)NCc3ccccc3)c2)CC1 (some centres undefined) was < 4.00
